The reported numbers originate from BindingDB's records for doi:10.1021/jm00018a012.

The following molecules are listed with their measured pIC50 values.
- subject_of_test: Platelet-activating factor receptor (Oryctolagus cuniculus)
- assay_remarks: In vitro antagonist activity against platelet activating factor (PAF) receptor, using washed rabbit platelets
pIC50 here is simply -log10 of the concentration when that concentration is written in mol/L.

Sample records with pIC50:
- Cc1cc2c(cc1C)-n1c(C)nnc1CC(c1ccc(-n3c(C)nc4cnccc43)cc1)=N2: 8.62
- Cc1nc2cnccc2n1-c1ccc(C2=Nc3c(C4CCCCC4)nn(C)c3N(C)C(=O)C2)cc1: 9.15
- Cc1nn(C)c2c1N=C(c1ccc(-n3c(C)nc4cnccc43)cc1)CC(=O)N2: 7.59
- Cc1nc2cnccc2n1-c1ccc(C2=Nc3c(-c4ccccn4)nn(C)c3N(C)C(=O)C2)cc1: 7.85

Turning now to a further molecule:
Ask: Tell me the measured pIC50 of Cc1cnc2n1-c1cc(Cl)c(Cl)cc1N=C(c1ccc(-n3c(C)nc4cnccc43)cc1)C2 , please.
Reply: 8.92

---

Measured IC50 by item
- subject_of_test: Platelet-activating factor receptor (Oryctolagus cuniculus)
- assay_remarks: In vitro antagonist activity against platelet activating factor (PAF) receptor, using washed rabbit platelets
# number only, unit nM dropped from output

Please review the entries below; each comes with its answer.
* Cc1nn(C)c2c1N=C(c1ccc(-n3c(C)nc4cnccc43)cc1)CC(=O)N2C | 17
* Cc1cc2c(cc1C)-n1cnnc1CC(c1ccc(-n3c(C)nc4cnccc43)cc1)=N2 | 2.3
* Cc1cn2c(n1)CC(c1ccc(-n3c(C)nc4cnccc43)cc1)=Nc1cc(Cl)c(Cl)cc1-2 | 0.3
* Cc1cc2c(cc1C)-n1c(n[nH]c1=O)CC(c1ccc(-n3c(C)nc4cnccc43)cc1)=N2 | 55

Here is another compound to look at.
Ask: Give its IC50 value. Item: Cc1nc2cnccc2n1-c1ccc(C2=Nc3c(-c4ccncc4)nn(C)c3N(C)C(=O)C2)cc1
Reply: 5.2

---

- subject_of_test: Platelet-activating factor receptor (Oryctolagus cuniculus)
- assay_remarks: In vitro antagonist activity against platelet activating factor (PAF) receptor, using washed rabbit platelets
Below, each entry is listed alongside its reported IC50.

The cases that follow already have their IC50 on record.
- Cc1nc2cnccc2n1-c1ccc(C2=Nc3c(C(C)C)nn(C)c3N(C)C(=O)C2)cc1: 3.5 nM
- Cc1cc(C)c2c(n1)N=C(c1ccc(-n3c(C)nc4cnccc43)cc1)CC(=O)N2: 21 nM

We next turn to a different compound, shown below.
Ask: # query: IC50 of entry Cc1cc2c(cc1C)-n1ccnc1CC(c1ccc(-n3c(C)nc4cnccc43)cc1)=N2
Reply: 1.3 nM
